Can you tell me Test B rating (% disease control) for the items I'm about to list?
- Test system: Botrytis cinerea
- Assay text: Test B: tomato Botrytis, preventive spray on tomato seedlings, visual disease rating
- Assay context: tomato Botrytis; 100 = 100% disease control, 0 = no control relative to controls
Give bare numbers, in %.

[
  {
    "Smiles notation": "Cc1cc(Oc2c(-c3c(F)cc(F)cc3F)c(C)nn2C)ccc1Br",
    "Test B rating (% disease control) (%)": 0
  },
  {
    "Smiles notation": "Cc1nn(C)c(Nc2cc(F)ccc2F)c1-c1ccc(F)cc1F",
    "Test B rating (% disease control) (%)": 99
  },
  {
    "Smiles notation": "Cc1nn(C)c(Nc2ccc(F)cc2F)c1-c1c(F)cccc1C(F)(F)F",
    "Test B rating (% disease control) (%)": 100
  },
  {
    "Smiles notation": "COc1ccc(F)c(-c2c(C)nn(C)c2Oc2c(F)cc(C#N)cc2F)c1",
    "Test B rating (% disease control) (%)": 99
  },
  {
    "Smiles notation": "Cc1nn(C)c(Nc2ccc(F)cc2)c1-c1c(F)cccc1C(F)(F)F",
    "Test B rating (% disease control) (%)": 100
  },
  {
    "Smiles notation": "CCN(c1c(F)cc(OC)cc1F)c1c(-c2ccc(F)cc2Cl)c(C)nn1C",
    "Test B rating (% disease control) (%)": 100
  },
  {
    "Smiles notation": "Cc1nn(C)c(Nc2c(F)cc(F)cc2F)c1-c1c(F)cccc1Cl",
    "Test B rating (% disease control) (%)": 98
  },
  {
    "Smiles notation": "Cc1nn(C)c(Nc2ccc(F)cc2Cl)c1-c1ccc(F)cc1F",
    "Test B rating (% disease control) (%)": 100
  },
  {
    "Smiles notation": "Cc1nn(C)c(Nc2c(F)cc(F)cc2F)c1-c1ccccc1F",
    "Test B rating (% disease control) (%)": 97
  }
]

With those in mind, consider the next molecule.
Query: Recorded Test B rating (% disease control) of COc1ccc(Nc2c(-c3c(F)cccc3F)c(C)nn2C)c(F)c1 , please.
Response: 100

* * *

- Tested on: Septoria nodorum
- Assay text: Test F: Septoria glume blotch, preventive spray on wheat seedlings, visual disease rating
- Assay context: Septoria glume blotch on wheat; 100 = 100% disease control, 0 = no disease control relative to controls
Measured quantity: Test F disease control rating (%)
One number for each entry, in %.

[
  {
    "Molecule": "CCOc1ccc(Nc2c(-c3ccc(F)cc3Cl)c(C)nn2C)c(Cl)c1 [compound 325]",
    "Target desc": "Septoria nodorum",
    "Measured quantity": "Test F disease control rating",
    "Display unit": "%",
    "Experimental result": 0
  },
  {
    "Molecule": "COc1ccc(-c2c(C)nn(C)c2Oc2ccc(C#N)cc2Cl)c(Cl)c1 [compound 311]",
    "Target desc": "Septoria nodorum",
    "Measured quantity": "Test F disease control rating",
    "Display unit": "%",
    "Experimental result": 60
  },
  {
    "Molecule": "Cc1nn(C)c(Nc2c(Cl)cc(F)cc2Br)c1-c1ccc(F)cc1F [compound 348]",
    "Target desc": "Septoria nodorum",
    "Measured quantity": "Test F disease control rating",
    "Display unit": "%",
    "Experimental result": 94
  },
  {
    "Molecule": "Cc1nn(C)c(Nc2ncc(Cl)cc2Cl)c1-c1cccc(Cl)c1Cl [compound 303]",
    "Target desc": "Septoria nodorum",
    "Measured quantity": "Test F disease control rating",
    "Display unit": "%",
    "Experimental result": 0
  }
]

Working through the 2 molecules below one at a time, give Test F disease control rating for each.
1. Cc1nn(C)c(Nc2ccc([N+](=O)[O-])cc2F)c1-c1ccc(F)cc1Cl [compound 344]
2. Cc1nn(C)c(Oc2c(F)cc(C#N)cc2F)c1-c1cccnc1Cl [compound 308]

Response:
1. 87
2. 0

Look at each molecule and report its Test F disease control rating.
1. Cc1nn(C)c(Oc2ccc(C#N)cc2Cl)c1-c1ccc(Cl)cc1Cl [compound 362]
2. Cc1nn(C)c(Nc2ccc(F)cc2Cl)c1-c1ccc(C#N)cc1Cl [compound 338]
3. Cc1nn(C)c(Nc2ccc(F)cc2)c1-c1c(Cl)cccc1Cl [compound 337]
4. Cc1nn(C)c(Oc2c(F)cc(C#N)cc2F)c1-c1ccccc1F [compound 305]

Response:
1. 0
2. 40
3. 0
4. 94

Fill in Test F disease control rating for each of the 4 molecules listed.
1. Cc1nn(C)c(Nc2cc([N+](=O)[O-])ccc2F)c1-c1ccc(F)cc1Cl [compound 345]
2. Cc1nn(C)c(Nc2ccc(F)cc2Br)c1-c1ccc(F)cc1Br [compound 313]
3. COc1cc(Cl)c(Nc2c(-c3ccc(F)cc3Br)c(C)nn2C)c(Cl)c1 [compound 323]
4. COc1ccc(Nc2c(-c3ccc(F)cc3Br)c(C)nn2C)c(Cl)c1 [compound 324]

Response:
1. 0
2. 51
3. 0
4. 0

* * *

For each entry below, report its pest or weed control at 200 µg/mL value.
- Tested on: Puccinia recondita f. sp. tritici
- Assay text: Test I: wheat leaf rust, preventive spray on wheat seedlings, visual disease rating
- Assay context: 192 h, read-out: Test I rating (% disease control)
Numbers only, in %.

Previously resolved entries follow.
[
  {
    "Smiles notation": "Cc1nn(C)c(Nc2c(F)cc(F)cc2Cl)c1-c1c(F)cccc1F",
    "pest or weed control at 200 µg/mL (%)": 100
  },
  {
    "Smiles notation": "Cc1nn(C)c(Oc2c(F)cc([N+](=O)[O-])cc2F)c1-c1c(F)cc(F)cc1F",
    "pest or weed control at 200 µg/mL (%)": 95
  }
]

Query: Would you kindly share the measured pest or weed control at 200 µg/mL for Cc1nn(C)c(Nc2c(F)cc(F)cc2F)c1-c1ccc(F)cc1Cl ?
Response: 100

* * *

- System: Puccinia recondita f. sp. tritici
- Assay text: Test H: wheat leaf rust, curative spray on inoculated wheat seedlings, visual disease rating
- Assay context: wheat leaf rust, curative; 100 = 100% disease control, 0 = no control relative to controls
Task for the reader: assign each of the following compounds its reported Test H rating (% disease control).
Answers are plain numbers, in %.

Some solved entries appear below for comparison.
[
  {
    "Smiles notation": "Cc1nn(C)c(Nc2cncnc2)c1-c1ccc(F)cc1Cl",
    "Measured quantity": "Test H rating (% disease control)",
    "Experimental result": 8
  },
  {
    "Smiles notation": "COc1cc(F)c(Nc2c(-c3ccccc3C(F)(F)F)c(C)nn2C)c(F)c1",
    "Measured quantity": "Test H rating (% disease control)",
    "Experimental result": 0
  },
  {
    "Smiles notation": "Cc1nn(C)c(Oc2c(F)cc(C#N)cc2F)c1-c1ccccc1Cl",
    "Measured quantity": "Test H rating (% disease control)",
    "Experimental result": 0
  },
  {
    "Smiles notation": "Cc1ccc(Oc2c(-c3c(F)cc(F)cc3F)c(C)nn2C)cc1C",
    "Measured quantity": "Test H rating (% disease control)",
    "Experimental result": 0
  },
  {
    "Smiles notation": "Cc1nn(C)c(Nc2c(F)cc(F)cc2Cl)c1-c1c(F)cccc1Cl",
    "Measured quantity": "Test H rating (% disease control)",
    "Experimental result": 0
  }
]

Your task in this section: give Test H rating (% disease control) for each listed record.
1. Cc1nn(C)c(Oc2ccc(Br)c(C#N)c2)c1-c1c(F)cc(F)cc1F
2. Cc1nn(C)c(Nc2ccc(F)cc2Cl)c1-c1ccccc1C(F)(F)F
3. COc1cc(F)c(-c2c(C)nn(C)c2Oc2ccc(Cl)cc2)c(F)c1
4. COc1ccc(Cl)c(-c2c(C)nn(C)c2Oc2c(F)cc(C#N)cc2F)c1
5. COc1cc(F)c(-c2c(C)nn(C)c2Oc2ccc(C)c(C#N)c2)c(F)c1
6. COc1ccc(Cl)c(Nc2c(-c3c(F)cccc3F)c(C)nn2C)c1

Response:
0
0
41
0
0
0

Please look at the items below and tell me Test H rating (% disease control) for each one, in order.
1. Cc1nn(C)c(Nc2cccc(Cl)c2Cl)c1-c1ccc(F)cc1F
2. Cc1nn(C)c(Nc2cccc(F)c2F)c1-c1ccc(F)cc1F
3. Cc1nn(C)c(Oc2c(F)cc(C#N)cc2F)c1-c1cc(Cl)ccc1Cl
4. COc1cc(Oc2c(-c3c(F)cc(F)cc3F)c(C)nn2C)ccc1Br

Response:
[0, 9, 8, 0]

* * *

- System: Erysiphe graminis f sp. tritici
- Assay text: Test J: wheat powdery mildew, preventive spray on wheat seedlings, visual disease rating
- Assay context: wheat powdery mildew, sprayed the day before inoculation; 100 = 100% disease control, 0 = no disease control relative to controls
For each of the compounds below, state its Test J disease control rating.
Give bare numbers, in %.

Need Test J disease control rating for each of these compounds.
1. COCN(c1c(F)cc(F)cc1F)c1c(-c2ccc(F)cc2Cl)c(C)nn1C
2. CCOc1ccc(Nc2c(-c3ccc(F)cc3Cl)c(C)nn2C)c(Cl)c1
3. Cc1nn(C)c(Nc2c(Cl)cc(F)cc2Cl)c1-c1c(Cl)cccc1Cl
4. Cc1nn(C)c(Nc2ncc(Cl)cc2Cl)c1-c1c(F)cccc1F

Response:
1. 99
2. 99
3. 93
4. 100

I have 2 compounds here; please give me Test J disease control rating for each one.
1. COc1ccc(Nc2c(-c3c(Cl)cccc3Cl)c(C)nn2C)cc1
2. Cc1nn(C)c(Nc2ncc(Cl)cc2Cl)c1-c1ccc(F)cc1F

Response:
0
100
